src = the supplement of paper PMC12632987

target: GABARAP, O95166; assay: median log2 fold change of GCK-ALFA target abundance (FLAG IP / Myc IP barcode read proportion) (log2 ratio); each designed protein is fused to an ALFA-tag nanobody in HEK293 cells to bring the named protein to FLAG-tagged glucokinase (GCK); Myc marks an untargeted standard; higher = target protein stabilised (more abundant); settings: target protein: 3xFLAG-MCP-GCK-ALFA reporter; HEK293 landing pad (RPLP)
Sequence (O95166 whole entry, the tested form may be a part): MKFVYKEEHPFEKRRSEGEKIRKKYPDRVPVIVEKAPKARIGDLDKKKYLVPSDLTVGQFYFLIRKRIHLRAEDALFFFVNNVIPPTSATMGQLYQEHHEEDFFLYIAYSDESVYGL
Whole data set: some 4,500 sequences, median “median log2 fold change of GCK-ALFA target abundance (FLAG IP / Myc IP barcode read proportion)” near 0.078, cut for the lowest 2% near -0.6. Many of the other results were omitted from the sample, so the lowest values are more common in it than they were.
measured.parameter: median log2 fold change

* GBRAP_53_6391 (protein) GEERLEELIEELNRLIEELKTADPETAIKLAREAVELLLELAELGLPEEELVELVRRFAEAARPKPELEPVLVELAKRLAALGREEAAAEVAEALVEELE | 0.2
* GBRAP_78_6697 (protein) EVEELLEKALELLDQALKLSKQLPEDLRNEVTYHLVEAITDLEEAIEEGADLEELKEALEHLDKAIALVKANDTPLTQPLLKLLTEAKKLLEEAIKKLEE | 0.0855
* GBRAP_26_5425 (protein) LDEAVERAIERISAAAAELLDPETAAAVRAVVTDELLEAEEEIEEEDLSEEEVEELLEEVLEEIEEDLEELGVPAEKRARLVAVAEEELEEVLEEWKEER | -0.608
* GBRAP_78_6654 (protein) EVEELIDKAMEHLDKAAKLTKKLDEESRNELLDLLVEAASHILLSEENGFDLEELKEALEYLKKALEYAKSLNTPVAKEIAEELEKAIEYLEKAIKLLEE | 0.0422
* GBRAP_160_4385 (protein) AAALAALAKEIEALRKEFEEEAKDLNTEETRTLAIGVLAEVAALAWENEAISEETKDKIFAIIDEAIEELKANKDAPPEEIVAITTEAFDKIIALVKAEA | -0.171
* GBRAP_64_6489 (protein) MEEIEESLEELLKLVEELLEAVKDLSEELQKKVEEVKRLVEEAKTASLEERLDLTVEAAKLLNEILKNPELTEEQKELAGLALDKASELAWLLFEAEEEE | 0.0238
* GBRAP_184_5202 (protein) AIVERTIEFENEEELKEKLKELLEELKGFKGTVYIHVEAPEITEEMAKLLIEFVKEIKENGYATEIIVDIEGEVSEEVRDLLLDEFAKIGAKVVIALSEE | -0.159
* GBRAP_160_4497 (protein) SERKERAKERARELVEEAAEAIREEEGEGKEQIARAYAGDIALELLELGVVSEEQEEEVLRLAEEGFRRMVEASEKGEEELERAAEELKRRLEELIEEFA | 0.292
* GBRAP_137_3646 (protein) PNVTITKETIDDLVEINIEFDDPEKAEEAAELIRDVAHEHGALAVSIEINEDGTLEATIWVPKDKAQALIDALVTRLRTELGANVTVIDKDTGETTVVKA | -0.0128
* GBRAP_160_4430 (protein) AEKLEKAKKEIDALFAEALEMMKGQTAEQRIVVLRVTEGEVKLELEELGLLTDEVDAVIDATFAAIIAHVAAHPDITDAELAALLDAAAATIKAELDKAA | 0.0561
* GBRAP_125_2982 (protein) PTEQELEDLRRFARALGLDEEEAEEAAELARAHSLRGTVYAILAALGEEEAADLVEKLTEEEVARVLRRVAAYLEAHPDATPEEVVALFRELAEEELAKR | -0.551
* GBRAP_95_7026 (protein) EDDQLLVDSLTEVLETYVDLGDEERAREAARRLVRALRENGILPLPKSISVEAAKLILEVALEELDLEELEALAKQLIEATKDEEVRKYAEAKIAEKRAR | 0.182
* GBRAP_128_3555 (protein) STEEVVEEAEELLEKIKESDEEEAREYARELVRLLASVDEESREAIVKVILERLPELTVEQLEILADVFREERPKVDPDVANALAEIEVEALNVALEKEE | -0.0585
* GBRAP_52_6059 (protein) MEERIEELARRIAEAIAAGDLERALELLRRAIKELSVEEIRRMLELAAERVAKLGEEAHERFVELLEEAEELMKEAGISEEEAELIVGDAEAALARAVAA | 0.0176
